Assayed Target: NEK6 (Homo sapiens)
Construct: purchased Carna 05-130
Method: Off-chip Mobility Shift Assay (MSA), NEK6
Assay type: biochemical
Condition Set: CARNA Biosciences Study CBS170097, ATP 75 µM
Give IC50 for every item shown.
One number for each entry, in µM.

>>> value_measured("CC1=C(C#N)C(O)=NC(=O)/C1=C\\c1ccc(-c2ccccc2)o1")
13.8

Note: attention shifts to another entry.
*Q* Given Nc1nc2c(c(=O)[nH]1)C(c1ccccc1)C1=C(N2)c2ccccc2C1=O (centres unmarked) , state its recorded IC50.
*A* 49.8

----------
Assayed Target: NEK6 (Homo sapiens, UniProt Q9HC98)
Construct: purchased Carna 05-130
Sequence (Q9HC98 whole entry): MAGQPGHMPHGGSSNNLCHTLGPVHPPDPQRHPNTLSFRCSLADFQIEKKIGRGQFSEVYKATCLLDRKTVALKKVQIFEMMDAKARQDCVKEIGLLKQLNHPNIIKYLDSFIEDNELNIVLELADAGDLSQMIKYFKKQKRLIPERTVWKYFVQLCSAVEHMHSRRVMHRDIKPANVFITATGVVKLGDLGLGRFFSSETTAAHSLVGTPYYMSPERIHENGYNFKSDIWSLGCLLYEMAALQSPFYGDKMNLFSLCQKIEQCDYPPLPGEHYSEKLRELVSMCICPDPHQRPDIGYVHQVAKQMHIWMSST
Method: LANCE-Ultra NEK6 kinase assay
Type: biochemical
Condition Set: LANCE-Ultra, 100 µM ATP, mean ± SEM of 4 independent experiments
Measure Name: pIC50
Give bare numbers, as −log10 of the molar value.

>>> value_measured("Nc1nc2c(c(=O)[nH]1)C(c1ccccc1)C1=C(N2)c2ccccc2C1=O (centres unmarked)")
5.59

*Q* Given CC1=C(C#N)C(O)=NC(=O)/C1=C\c1ccc(-c2ccccc2)o1 , state its recorded pIC50.
*A* 5.47
